Taken from patent US20130102619A1.

Biological target: UniProt:O43614
Sequence (O43614 whole entry): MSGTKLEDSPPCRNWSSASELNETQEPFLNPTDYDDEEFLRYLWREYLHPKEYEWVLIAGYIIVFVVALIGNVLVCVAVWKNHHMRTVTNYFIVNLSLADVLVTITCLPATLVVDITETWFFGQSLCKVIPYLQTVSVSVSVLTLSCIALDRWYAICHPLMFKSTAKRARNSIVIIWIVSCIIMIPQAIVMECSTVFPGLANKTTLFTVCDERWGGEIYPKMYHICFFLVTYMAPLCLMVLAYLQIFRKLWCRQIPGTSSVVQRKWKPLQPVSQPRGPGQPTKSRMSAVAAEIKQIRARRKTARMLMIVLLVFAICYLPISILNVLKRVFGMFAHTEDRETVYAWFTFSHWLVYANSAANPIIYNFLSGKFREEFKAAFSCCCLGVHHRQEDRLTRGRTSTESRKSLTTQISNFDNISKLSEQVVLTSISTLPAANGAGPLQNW
Test: FLIPR Ca2+ Flux Assay, CHO cells expressing human orexin-2 receptor
Conditions: 70 pM Ala-6,12 orexin-A agonist, read-out: hOX2R FLIPR IC50
// reported pIC50 per item
# pIC50: negative log10 of molar concentration; output just the value

The following compounds have reported results that may help.
INPUT: Specify the recorded pIC50 for C[C@@H]1CC[C@@H](Oc2cc(C#N)ccn2)CN1C(=O)c1c(F)cccc1-c1ncccn1 , system: UniProt:O43614.
OUTPUT: 7.33

INPUT: Specify the recorded pIC50 for C[C@@H]1CC[C@@H](Oc2cc(C#N)ccn2)CN1C(=O)c1ccsc1-c1ncccn1 , system: UniProt:O43614.
OUTPUT: 7.36

INPUT: Specify the recorded pIC50 for C[C@@H]1CC[C@@H](Oc2cc(C#N)ccn2)CN1C(=O)c1ccc(F)cc1-n1nccn1 , system: UniProt:O43614.
OUTPUT: 7.54

INPUT: Specify the recorded pIC50 for C[C@@H]1CC[C@@H](Oc2cc(C#N)ccn2)CN1C(=O)c1ccc(Cl)cc1-n1nccn1 [Example 29] , system: UniProt:O43614.
OUTPUT: 7.92

INPUT: Specify the recorded pIC50 for COc1ccc(C(=O)N2C[C@H](Oc3cc(C#N)ccn3)CC[C@H]2C)c(C2CC2)n1 , system: UniProt:O43614.
OUTPUT: 7.17

INPUT: Specify the recorded pIC50 for C[C@@H]1CC[C@@H](Oc2cc(C#N)ccn2)CN1C(=O)c1sccc1-n1nccn1 , system: UniProt:O43614.
OUTPUT: 7.19

INPUT: Specify the recorded pIC50 for C[C@@H]1CC[C@@H](Oc2cc(C#N)ccn2)CN1C(=O)c1ccc(F)cc1-c1ncccn1 , system: UniProt:O43614.
OUTPUT: 7.32

INPUT: Specify the recorded pIC50 for C[C@@H]1CC[C@@H](Oc2cc(C#N)ccn2)CN1C(=O)c1ccc(Cl)cc1-n1nccn1 [Example 7] , system: UniProt:O43614.
OUTPUT: 7.77

New cases:
INPUT: Specify the recorded pIC50 for C[C@@H]1CC[C@@H](Oc2cc(C#N)ccn2)CN1C(=O)c1ccsc1-n1nccn1 , system: UniProt:O43614.
OUTPUT: 7.54

INPUT: Specify the recorded pIC50 for COc1ccc(C(=O)N2C[C@H](Oc3cc(C#N)ccn3)CC[C@H]2C)c(-n2nccn2)n1 , system: UniProt:O43614.
OUTPUT: 7.09

INPUT: Specify the recorded pIC50 for C[C@@H]1CC[C@@H](Oc2cc(C#N)ccn2)CN1C(=O)c1cc(Br)ccc1-n1nccn1 , system: UniProt:O43614.
OUTPUT: 7.21

INPUT: Specify the recorded pIC50 for Cc1cccc(-n2nccn2)c1C(=O)N1C[C@H](Oc2cc(C#N)ccn2)CC[C@H]1C , system: UniProt:O43614.
OUTPUT: 7.54

INPUT: Specify the recorded pIC50 for Cc1cccc(C(=O)N2C[C@H](Oc3cc(C#N)ccn3)CC[C@H]2C)c1-n1nccn1 , system: UniProt:O43614.
OUTPUT: 7.77

###

// reported pKi per item
Target: OX1 receptor (hOX1) (Homo sapiens, UniProt O43613)
# pKi: negative log10 of molar concentration; output just the value

INPUT: Please indicate pKi recorded for C[C@@H]1CC[C@@H](Oc2cc(C#N)ccn2)CN1C(=O)c1sccc1-c1ncccn1
OUTPUT: 5.57

INPUT: Please indicate pKi recorded for C[C@@H]1CC[C@@H](Oc2cc(C#N)ccn2)CN1C(=O)c1ccc(F)cc1-n1nccn1
OUTPUT: 5.54

INPUT: Please indicate pKi recorded for Cc1cccc(-n2nccn2)c1C(=O)N1C[C@H](Oc2cc(C#N)ccn2)CC[C@H]1C
OUTPUT: 6.03

INPUT: Please indicate pKi recorded for C[C@@H]1CC[C@@H](Oc2cc(C#N)ccn2)CN1C(=O)c1ccc(Cl)cc1-n1nccn1 [Example 7]
OUTPUT: 6.00

INPUT: Please indicate pKi recorded for C[C@@H]1CC[C@@H](Oc2cc(C#N)ccn2)CN1C(=O)c1c(F)cccc1-n1nccn1
OUTPUT: 5.75

INPUT: Please indicate pKi recorded for COc1ccc(C(=O)N2C[C@H](Oc3cc(C#N)ccn3)CC[C@H]2C)c(-n2nccn2)n1
OUTPUT: 5.25

INPUT: Please indicate pKi recorded for C[C@@H]1CC[C@@H](Oc2cc(C#N)ccn2)CN1C(=O)c1nscc1-n1nccn1
OUTPUT: 4.89

INPUT: Please indicate pKi recorded for Cc1nsc(-n2nccn2)c1C(=O)N1C[C@H](Oc2cc(C#N)ccn2)CC[C@H]1C
OUTPUT: 4.46

New cases:
INPUT: Please indicate pKi recorded for CCOc1ccc(C(=O)N2C[C@H](Oc3cc(C#N)ccn3)CC[C@H]2C)c(-n2nccn2)c1
OUTPUT: 4.63

INPUT: Please indicate pKi recorded for C[C@@H]1CC[C@@H](Oc2cc(C#N)ccn2)CN1C(=O)c1ccsc1-n1nccn1
OUTPUT: 5.45

INPUT: Please indicate pKi recorded for C[C@@H]1CC[C@@H](Oc2cc(C#N)ccn2)CN1C(=O)c1ccc(F)cc1-c1ncccn1
OUTPUT: 6.06

INPUT: Please indicate pKi recorded for C[C@@H]1CC[C@@H](Oc2cc(C#N)ccn2)CN1C(=O)c1cc(C(N)=O)ccc1-n1nccn1
OUTPUT: 5.89

INPUT: Please indicate pKi recorded for C[C@@H]1CC[C@@H](Oc2cc(C#N)ccn2)CN1C(=O)c1ccc(Cl)cc1-n1nccn1 [Example 29]
OUTPUT: 5.96
